# particulars: buffer; pH 7.4; 200.0 µM
measured-property: solubility kinetic (µg/mL)
Please state the figure in µg/mL; there is no need to write the unit.

The reported solubility kinetic of the molecule `O=C(Nc1ccc(Br)cc1)c1cc(-c2ccncc2)nc2ccccc12` was 5.8

The reported solubility kinetic of the molecule `O=Cc1c(F)cccc1N1CCCC1` was 15.3

The reported solubility kinetic of the molecule `O=C(/C=C/c1ccco1)N1CCN(c2ccc(F)cc2)CC1` was 5.6

----------
# particulars: buffer; pH 7.4; 200.0 µM
measured-property: solubility kinetic (µg/mL)
Please state the figure in µg/mL; there is no need to write the unit.

The reported solubility kinetic of the compound `O=[N+]([O-])c1cccc(CN2CCN(c3ncccn3)CC2)c1` was 32.2

The reported solubility kinetic of the compound `Fc1ccc(-c2c[nH]c(=S)n2Cc2ccccc2)cc1` was 1.4

The reported solubility kinetic of the compound O=C(NC1CCCCC1)[C@@H]1CSC2c3ccccc3C(=O)N21 (some centres not stated) was 47

The reported solubility kinetic of the compound `O=C(O)c1ccccc1NCCO` was 24

The reported solubility kinetic of the compound `COC(=O)c1ccc(COc2cccnc2[N+](=O)[O-])cc1` was 4.2

The reported solubility kinetic of the compound CCCCSc1nc2sc3c(c2c(=O)[nH]1)CC(C)(CC)OC3 (configuration not stated) was 0.5

----------
# particulars: buffer; pH 7.4; 200.0 µM
Provide the recorded solubility kinetic for the entries that follow.
Please state the figure in µg/mL; there is no need to write the unit.

The reported solubility kinetic of the compound `CCCCNC(=S)Nc1ccc2[nH]c(=O)[nH]c2c1` was 18.4

The reported solubility kinetic of the compound `CCOC(=O)c1c(C)[nH]c(NC(=O)Nc2ccc(NC(C)=O)cc2)c1C` was 22.2

The reported solubility kinetic of the compound `CNC(=O)c1[nH]cnc1C(=O)Nc1ccc(F)cc1` was 1.7

The reported solubility kinetic of the compound `Cn1cnc(Sc2ncnc3nc[nH]c23)c1[N+](=O)[O-]` was 29.7

The reported solubility kinetic of the compound `Cc1cc(C)cc(NC(=O)COC(=O)CC2CCCC2)c1` was 21.1

The reported solubility kinetic of the compound `COc1cc(OC)c(C(=O)OCC(=O)NC23CC4CC(CC(C4)C2)C3)cc1OC` was 3.9

The reported solubility kinetic of the compound `CCOC(=O)C1=C(O)/C(=C/c2cc(C)n(-c3ccccc3)c2C)N=C1C` was 30.7

The reported solubility kinetic of the compound `O=C(O)CC1(CC(=O)N2CCC(C(=O)O)CC2)CCCC1` was 40.6

The reported solubility kinetic of the compound `Cn1c(=O)oc2cc(S(=O)(=O)Nc3ccccc3F)ccc21` was 15.6

The reported solubility kinetic of the compound `CN(Cc1ccccc1)C(=O)COC(=O)c1ccc(Cl)cc1N` was 2.4

The reported solubility kinetic of the compound `Cc1cc(C)c(NC(=O)C2CCN(C(=O)c3ccco3)CC2)c(C)c1` was 44.2

The reported solubility kinetic of the compound `COc1ccc(-c2csc(Nc3cccc(C)n3)n2)cc1C` was 3.4

The reported solubility kinetic of the compound `CCOc1ccc(NCc2cc3cc(OC)ccc3[nH]c2=O)cc1` was 2.1

The reported solubility kinetic of the compound `Cc1cnc(C(=O)OCC(=O)c2cccc3ccccc23)cn1` was 36.1

The reported solubility kinetic of the compound `CCSc1nc2sc3c(c2c(=O)[nH]1)CC(C)(C)OC3` was 3.1
